system: A431 cells EGFR WT; assay: A431 cell viability assay (Cell Titer-Glo, 6 days); type: cell-based, human; conditions: Homo sapiens, A-431, 144 h; A431 cells, 6 days
pIC50: −log10 of the molar value.
READOUT_LABEL: pIC50

structure_notation=C=CC(=O)Nc1cc(Nc2nccc(-c3c4n(c5ccccc35)CCOC4)n2)c(OC)cc1N(C)CCN(C)CC assay_system="A431 cells EGFR WT" readout_label=pIC50 endpoint_result=6.29
structure_notation=C=CC(=O)Nc1cc(Nc2nccc(-c3c4n(c5ccccc35)CCOC4)n2)c(OC(C)C)cc1N(C)CCN(C)C assay_system="A431 cells EGFR WT" readout_label=pIC50 endpoint_result=5.93
structure_notation=C=CC(=O)Nc1cc(Nc2ncc(F)c(-c3c4n(c5ncccc35)CCOC4)n2)c(OC)cc1N(C)CCN(C)C assay_system="A431 cells EGFR WT" readout_label=pIC50 endpoint_result=5.80
structure_notation=C=CC(=O)Nc1cc(Nc2nccc(-c3c4n(c5ccccc35)CC(F)(F)CC4)n2)c(OC)cc1N(C)CCN(C)C assay_system="A431 cells EGFR WT" readout_label=pIC50 endpoint_result=6.87
